- Assay Text: Animal PK study in mouse via i.v., p.o. and s.c. administration
- Format: in vivo
- Setup Conditions: p.o.
Assign labels as follows, please: Fulfilled for PK Vdpo below 100 L/kg; Not fulfilled for PK Vdpo equal to or exceeding 100 L/kg.

>>> print(df.to_string())
                                    compound  assigned_category
 0  C[C@H](NC(=O)Nc1ccc(S(=O)(=O)Cc2ccc3c(c2)CCN(C)C3)cc1)c1cccc(Cl)c1Cl          Fulfilled
 1  CC(C)(N)Cc1ccc(NS(=O)(=O)c2ccc(NC(=O)NCc3ccccc3)cc2)cc1.Cl      Not fulfilled
 2  COc1ccc([C@H](C)NC(=O)Nc2ccc(S(=O)(=O)Cc3ccc4c(c3)CCN(C(C)=O)C4)cc2)c(Cl)c1Cl          Fulfilled
 3  C[C@H](NC(=O)Nc1ccc(S(=O)(=O)Nc2ccc(CC(C)(C)N(C)C)cc2)cc1)c1cccc(Cl)c1Cl      Not fulfilled
 4  C[C@H](NC(=O)Nc1ccc(S(=O)(=O)Cc2ccc(CO)cc2)cc1)c1cccc(Cl)c1Cl          Fulfilled
 5  C[C@H](NC(=O)Nc1ccc(S(=O)(=O)Nc2ccc(CC(C)(C)N)cc2)cc1)c1ccc(-c2cnccn2)c(Cl)c1Cl      Not fulfilled
 6  C[C@H](NC(=O)Nc1ccc(S(=O)(=O)Cc2ccc(CC(C)(C)N(C)C)cc2)cc1)c1cccc(Cl)c1Cl      Not fulfilled
 7  COc1ccc([C@H](C)NC(=O)Nc2ccc(S(=O)(=O)Nc3ccc4c(c3)CCNC4)cc2)c(Cl)c1Cl.Cl      Not fulfilled
 8  CCOC(=O)N1CCc2cc(NS(=O)(=O)c3ccc(NC(=O)N[C@@H](C)c4cccc(Cl)c4Cl)cc3)ccc2C1          Fulfilled
 9  O=C(NCc1ccccc1Cl)Nc1ccc(S(=O)(=O)Cc2ccc3c(c2)CCNC3)cc1      Not fulfilled
10  C[C@H](NC(=O)Nc1ccc(S(=O)(=O)Cc2ccc(CC(C)(C)N)cc2)cc1)c1cccc(Cl)c1Cl      Not fulfilled
11  Cl.O=C(NCc1cccc(Cl)c1Cl)Nc1ccc(S(=O)(=O)Cc2ccc3c(c2)CNC3)cc1      Not fulfilled
12  CC(NC(=O)Nc1ccc(S(=O)(=O)Cc2ccc3c(c2)CNC3)cc1)c1cccc2ccccc12.Cl (centres unmarked)      Not fulfilled
13  C[C@H](NC(=O)Nc1ccc(S(=O)(=O)Nc2ccc3c(c2)CCNC3)cc1)c1cccc(Cl)c1Cl.Cl      Not fulfilled
14  CC(NC(=O)Nc1ccc(S(=O)(=O)Cc2ccc3c(c2)CN(CC2CC2)C3)cc1)c1ccccc1 (centres unmarked)          Fulfilled

====

- Assay Text: Animal PK study in mouse via i.v., p.o. and s.c. administration
- Format: in vivo
- Setup Conditions: plasma, iv, 5 mg/kg, i.v., read-out: PK CL i.v.
Reported clearance by item:
Observable: clearance (mL/min/kg)

                                   compound  readout_value
0  CC(NC(=O)Nc1ccc(S(=O)(=O)Cc2ccc3c(c2)CN(C)C3)cc1O)c1ccccc1 (centres unmarked) [H1448]           80.5
1  C[C@H](NC(=O)Nc1ccc2c(c1)CC(c1ccc3c(c1)CNC3)S2(=O)=O)c1ccccc1 (some centres unmarked) [H1264]           48.2
2  COc1ccc([C@@H](C)NC(=O)Nc2ccc(S(=O)(=O)Cc3ccc4c(c3)CCN(C)C4)cc2)c(Cl)c1Cl [H1417]           26.2
3  CC(NC(=O)Nc1ccc(S(=O)(=O)Nc2ccc3c(c2)CCN(C)C3)cc1)c1cccc(Cl)c1Cl (centres unmarked) [H1333]           29.7
4  COc1cc(S(=O)(=O)Cc2ccc3c(c2)CN(C)C3)ccc1NC(=O)NC(C)c1ccccc1 (centres unmarked) [H1388]           77.7
5  CC(c1ccccc1)N(C)C(=O)Nc1ccc(S(=O)(=O)Cc2ccc3c(c2)CN(C)C3)cc1 (centres unmarked) [H1381]           63.8
6  CC(NC(=O)Nc1ccc(S(=O)(=O)Cc2ccc3c(c2)CNC3)cc1)c1ccc(F)cc1 (centres unmarked) [H1262]           21.8
7  COc1cc(S(=O)(=O)Cc2ccc3c(c2)CCNC3)ccc1NC(=O)NC(C)c1cccc(Cl)c1Cl.Cl (centres unmarked) [H1415]           17.2

meta.source: patent US10501479B2
